Tested on: A549 NSCLC
Test Name: NCI tumour cell line growth inhibition, 48 h
Where a SMILES comes first, the peptide text is derived from it. The star is where a group is joined. Boc = CC(C)(C)OC(=O)*; OBn = c1ccc(CO*)cc1
Record form. Attribute: TGI. Fill in for each entry.

Tested system A549 NSCLC; TGI recorded for CCCCCCCSCC1OC(n2cnc3c(N)ncnc32)C(O)C1O (stereo unspecified) was > 100 µM

Tested system A549 NSCLC; TGI recorded for Nc1ncnc2c1c(C(=O)NO)cn2C1OC(CO)C(O)C1O (stereo unspecified) was > 40.4 µM

Tested system A549 NSCLC; TGI recorded for `Cc1nn(-c2ccccc2)c(C)c1/C=N/N1CCN(Cc2ccccc2)CC1` was > 100 µM

Tested system A549 NSCLC; TGI recorded for `O=c1c2ccccc2n2n1Cc1ccccc1C2` was > 100 µM

Tested system A549 NSCLC; TGI recorded for COCO[C@@H]1CC2C=Nc3cc(OCc4ccccc4)c(OC)cc3C(=O)N2C1 (stereo partly specified) was 9.15 µM

Tested system A549 NSCLC; TGI recorded for CC(C)C(NC(=O)CNC(=O)C1CCCN1C(=O)C(NC(=O)OC(C)(C)C)C(C)C)C(=O)NCC(=O)OCc1ccccc1 (stereo unspecified) (Boc-VPGVG-OBn; configuration not given here) was > 100 µM

Tested system A549 NSCLC; TGI recorded for `CCOC(=O)/C(=C/c1ccc(Cl)cc1)N(CC)CC` was > 100 µM

Tested system A549 NSCLC; TGI recorded for `Cc1nc2sc(C(=O)Nc3cccc(Cl)c3C)c(N)c2cc1C(=O)c1ccccc1` was > 50 µM

Tested system A549 NSCLC; TGI recorded for O=c1[nH]cnc2c1ncn2C1SC(CO)C(O)C1O (stereo unspecified) was > 100 µM

Tested system A549 NSCLC; TGI recorded for COC(=O)c1c2c(cc3c1CC1(C3)Cc3ccc4c(c3C1=O)CCC4)CCC2 (stereo unspecified) was > 100 µM

Tested system A549 NSCLC; TGI recorded for `COc1ccc(/C(Cl)=C(\CNc2ccccn2)c2ccccc2)cc1OC` was > 100 µM

Tested system A549 NSCLC; TGI recorded for `CCOc1ccc(N=Nc2c(-c3ccccc3)nn(C(=O)CC(=O)Nc3cccc(C)c3)c2-c2ccccc2)cc1` was > 100 µM

Tested system A549 NSCLC; TGI recorded for `O=C1CCCC(=O)C1C(=O)c1ccc(C(F)(F)F)cc1[N+](=O)[O-]` was > 100 µM

Tested system A549 NSCLC; TGI recorded for `COc1cc(O)c2c(c1O)C(=O)c1cc(C)ncc1C2=O` was > 50 µM

Tested system A549 NSCLC; TGI recorded for CCC(C)C(NC(=O)c1c2ccccc2nc2ccccc12)C(=O)O (stereo unspecified) was > 100 µM

Tested system A549 NSCLC; TGI recorded for `C(=C\c1nc2ccccc2s1)/c1ccc(N2CCOCC2)s1` was > 100 µM

###

Record form. Attribute: GI50. Fill in for each entry.
System: NCI/ADR-RES ovarian
Test Name: NCI tumour cell line growth inhibition, 48 h

GI50 in this record for `O=C1c2ccccc2CCC1(Br)Br` : 3.4 µM

GI50 in this record for `O=C1CCCC(=O)C1C(=O)c1ccc(C(F)(F)F)cc1[N+](=O)[O-]` : > 100 µM

GI50 in this record for `Cc1[nH]c2ccccc2c1C1=CC(=O)C=CC1=O` : 10.9 µM

###

Tested on: HOP-92 NSCLC
Test Name: NCI tumour cell line growth inhibition, 48 h
Where a SMILES comes first, the peptide text is derived from it. The star is where a group is joined. Boc = CC(C)(C)OC(=O)*; OBn = c1ccc(CO*)cc1
Recorded Metric: TGI

TGI in this record for `CS(=O)(=O)c1ccc(-c2[nH]c3ccc(F)cc3c2/C=N/NC(N)=S)cc1` : 52.9 µM

TGI in this record for CCC(C)C(NC(=O)c1c2ccccc2nc2ccccc12)C(=O)O (stereo not drawn) : > 100 µM

TGI in this record for `C=CCN(c1cc(OCc2ccccc2)c2c(c1)c(C)cn2S(=O)(=O)c1ccccc1)S(C)(=O)=O` : > 100 µM

TGI in this record for `COc1ccc(CCN2COc3ccc4ccc(=O)oc4c3C2)cc1OC` : > 100 µM

TGI in this record for `CC(=O)Nc1ccc(S(=O)(=O)c2ccc(NC(C)=O)cc2)cc1` : > 100 µM

TGI in this record for `COC(=O)c1cn(CCCCO)nn1` : > 100 µM

TGI in this record for O=C(NCc1cccs1)OC1CC2CCC1C2 (stereo not drawn) : > 100 µM

TGI in this record for CC(C)C(NC(=O)CNC(=O)C1CCCN1C(=O)C(NC(=O)OC(C)(C)C)C(C)C)C(=O)NCC(=O)OCc1ccccc1 (stereo not drawn) (Boc-VPGVG-OBn; configuration not given here) : > 100 µM

###

Test system: SW-620 colon
Test Name: NCI tumour cell line growth inhibition, 48 h
Record form. Attribute: TGI. Fill in for each entry.

TGI in this record for O=C(O)C1CCCCC1C(=O)Nc1nc2ccccc2[nH]1 (configuration not stated) : > 100 µM

TGI in this record for `Cc1ccc(S(=O)(=O)c2ccsc2NC(=O)c2ccccc2)cc1` : > 100 µM

TGI in this record for Nc1ncnc2c1c(C(=O)NO)cn2C1OC(CO)C(O)C1O (configuration not stated) : > 31.7 µM

TGI in this record for COC(=O)C1=C(OC(=O)/C(=C/c2c(F)cccc2F)c2ccccc2)C(C(=O)OC)[C@@]2(O)[C@@H](C(=O)OC)[C@H](C)C[C@@H]1[C@@H]2C(=O)OC (some centres not stated) : > 100 µM

TGI in this record for `C=CCN1C[C@@H](C)N([C@@H](c2ccccc2)c2ccc(C(=O)N(CC)CC)cc2)C[C@@H]1C` : > 100 µM

TGI in this record for `Nc1ccc(-c2nc3ccccc3s2)cc1I` : > 100 µM

TGI in this record for C/C=C(\C)C(=O)OC1C2C(C)C(=O)OC2C(O)C(C)C2C=CC(=O)C21C (configuration not stated) : 28.7 µM

TGI in this record for CCN1C(=O)C(N=[N+]=[N-])(c2ccccc2)C(=O)c2ccccc21 (configuration not stated) : > 100 µM

TGI in this record for `Cc1ccc(N=Nc2c(C)nn(C(=O)CC(=O)Nc3ccc(Cl)cc3)c2C)cc1C` : > 100 µM

TGI in this record for `COC(=O)c1cc(NC(=O)CN(CCN(CC(=O)O)CC(=O)Nc2ccc(O)c(C(=O)OC)c2)CC(=O)O)ccc1O` : > 100 µM

TGI in this record for `[O]=[W](=[O])([OH])[OH]` : > 100 µM

TGI in this record for `CC(=O)[C@]1(C)[C@H](C)O[C@](C)(CO)[C@H]1O[Si](C)(C)c1ccccc1` : > 100 µM

TGI in this record for `CC(C)N(C(=O)c1ccc(NCc2cc(O)ccc2O)cc1)C(C)C` : 82 µM

TGI in this record for CC1OC(n2cc(I)c(=O)[nH]c2=O)C=CC1=O (configuration not stated) : 26.8 µM

TGI in this record for `COC(=O)c1cn(CCCCO)nn1` : > 100 µM

TGI in this record for `CNC(=O)c1c(NC(=O)c2ccc(C(C)C)cc2)sc2c1CCC(=O)C2` : 1.32 µM

TGI in this record for `O=C1Cc2c(-c3ccccc3)cc(-c3ccc4ccccc4c3)nc2-c2ccccc2N1` : > 100 µM

###

Test system: UACC-257 melanoma
Test Name: NCI tumour cell line growth inhibition, 48 h
Recorded Metric: TGI

TGI in this record for CCC[CH2][Ge]([CH2]CCC)([CH2]CCC)[O]C(=O)C(OC(C)=O)c1ccccc1 (stereo unspecified) : 11.5 µM

TGI in this record for `CN/N=C(/CC(=O)c1sc(-n2nc(-c3ccccc3)cc2-c2ccccc2)nc1C)C(=O)Nc1ccc(Cl)c(Cl)c1` : > 100 µM

TGI in this record for `O=C(O)c1nc2cc(C(F)(F)F)ccc2[nH]c1=O` : > 100 µM

TGI in this record for `Cc1ccc2nc(CC(=O)c3ccc4ccccc4c3)c(=O)[nH]c2c1` : > 100 µM

TGI in this record for `O=C1c2ccccc2-n2c1nc1cc(Cl)ccc1c2=O` : 29.1 µM

TGI in this record for `Cc1ccc(-c2n[nH]c(=O)n2N2C(=O)C=CC2=O)cc1` : > 100 µM

###

System: MDA-MB-435
Test Name: NCI tumour cell line growth inhibition, 48 h
Record form. Attribute: TGI. Fill in for each entry.
Hi! Could you send only the number? It should be in µM, unit omitted.

TGI in this record for `O=[N+]([O-])c1ccc(NN=C2c3ccccc3Cc3ccccc32)c([N+](=O)[O-])c1` : 5.8

TGI in this record for `CCNC(=O)c1ccc2c(c1)nc(-c1ccc(Cl)cc1)n2-c1cc(C(C)(C)C)[nH]n1` : 5.35

TGI in this record for O=C(OC(CNc1c(C(=O)c2ccccc2)c(=O)n(Cc2ccccc2)c(=O)n1Cc1ccccc1)CN1CCCCC1)c1ccccc1 (stereo not given) : 37.7

TGI in this record for `O=C(/C=C/c1cccs1)c1ccc(Cl)s1` : 37.3

TGI in this record for `CN(C)c1ccc(/C=C2\N=C(c3ccccc3)N(/N=C3\C(=O)Nc4ccccc43)C2=O)cc1` : 45.4

TGI in this record for `CC#CC(=O)N[C@H]1CCCN(c2c(F)cc(C(N)=O)c3[nH]c(C)c(C)c23)C1` : 34

Origin of values: PubChem BioAssay (NCI)
